biological target: glucagon receptor (human, UniProt P47871 26-477); assay: cell-based or functional assay
Sequence (P47871 26-477): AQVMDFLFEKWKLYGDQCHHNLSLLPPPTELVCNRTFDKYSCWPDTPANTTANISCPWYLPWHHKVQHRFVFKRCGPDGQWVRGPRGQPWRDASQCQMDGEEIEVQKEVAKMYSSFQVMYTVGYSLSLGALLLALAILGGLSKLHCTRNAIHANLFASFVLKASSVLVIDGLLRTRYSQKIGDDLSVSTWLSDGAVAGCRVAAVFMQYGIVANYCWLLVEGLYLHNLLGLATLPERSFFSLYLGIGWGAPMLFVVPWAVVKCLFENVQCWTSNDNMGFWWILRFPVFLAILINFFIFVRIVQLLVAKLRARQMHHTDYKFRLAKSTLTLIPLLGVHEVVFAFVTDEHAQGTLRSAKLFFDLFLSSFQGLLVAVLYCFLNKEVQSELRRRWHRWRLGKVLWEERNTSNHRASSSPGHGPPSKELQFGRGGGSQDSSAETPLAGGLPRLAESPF
No end group written: not given here.
Listed below: % Relative Activity vs native glucagon values for each entry.

Take a look at these entries with their results.
Binder	% Relative Activity vs native glucagon
HSQGTFTSDKSKYLDEQAAKEFICWLLDE-NH2 (not fully specified; also: further groups not given here) [Glucagon Analog 82]	121%
HAQGTFTSDKSKYLDERAAQDFVC(PEG 40 kDa)WLLDT-NH2 (also: other non-coded residues as, not given here) [Glucagon Analog 81]	51.4%

Task: Look up % Relative Activity vs native glucagon for this binder: HSQGTFTSDKSKYLDEQAAKEFIC(PEG 40 kDa)WLLDTGG-NH2 (not fully specified; also: further groups not given here) [Glucagon Analog 78]
Output: 44%

Task: Look up % Relative Activity vs native glucagon for this binder: HSQGTFTSDKSKYLDEQAAKEFICWLLDTE-NH2 (not fully specified; also: further groups not given here) [Glucagon Analog 83]
Output: 61%

Task: Look up % Relative Activity vs native glucagon for this binder: HSQGTFTSDKSKYLDEQAAKEFIC(PEG 40 kDa)WLLDT-NH2 (not fully specified; also: further groups not given here) [Glucagon Analog 79]
Output: 26%
